Reported EC50 values are given for each entry in this list.
molecular target: Muscarinic acetylcholine receptor M1 (Homo sapiens); assay: M1 receptor positive allosteric modulation, selectivity assay for M5 PAM discovery project, cell-based, human M1 (AID 743097); conditions: CHO-K1 hM1, Fluo-4 calcium flux, ACh EC20 potentiation
measure name: EC50

[
  {
    "smiles repr": "CCN(Cc1ccccc1C(F)(F)F)C(=O)C1(F)CCN(S(=O)(=O)c2ccc3[nH]ncc3c2)CC1",
    "measure name": "EC50",
    "observed result": "4.84 µM"
  },
  {
    "smiles repr": "CCN(C(=O)C1CCN(S(=O)(=O)c2ccc3[nH]ncc3c2)CC1)[C@H](C)c1ccccc1",
    "measure name": "EC50",
    "observed result": "5.28 µM"
  },
  {
    "smiles repr": "CCN(Cc1ccccc1Cl)C(=O)C1CCN(S(=O)(=O)c2ccc3cn[nH]c3c2)CC1",
    "measure name": "EC50",
    "observed result": "3.97 µM"
  },
  {
    "smiles repr": "CCN(Cc1ccccc1Cl)C(=O)C1CCN(S(=O)(=O)c2ccc3[nH]ncc3c2)CC1",
    "measure name": "EC50",
    "observed result": "2.52 µM"
  },
  {
    "smiles repr": "CCN(Cc1ccccc1C(F)(F)F)C(=O)C1CCN(S(=O)(=O)c2ccc3[nH]ncc3c2)CC1",
    "measure name": "EC50",
    "observed result": "6.99 µM"
  }
]
